IC50: recorded values
- target-or-system: αvβ3 (Homo sapiens, UniProt P05106+P06756)
- test-summary: Solid-phase receptor binding ELISA: competition with biotinylated fibrinogen on coated integrin receptor
- recorded-conditions: ligand biotinylated fibrinogen 1 μg/ml; receptor coated at 1 μg/ml; 3 h at 30° C.; triplicates
Where a SMILES comes first, the peptide text is derived from it. [ ]: non-standard residue; d: D form.
// return numeric value only (unit: µM, not printed)

compound | measured-property | val
CC(C)C[C@@H]1NC(=O)[C@@H](Cc2ccccc2)NC(=O)[C@H](CC(=O)O)NC(=O)CNC(=O)[C@H](CCCNC(=N)N)NC(=O)CNC1=O [cyclo(--Arg--Gly--Asp--D--Phe--Leu--Gly), cyclo(-Arg-Gly-Asp-D-Phe-Leu-Gly)] (cyclo(GRGD[dF]L)) | IC50 | 0.54

Report measured IC50; entry is CC(C)[C@@H]1NC(=O)[C@@H](Cc2ccccc2)NC(=O)[C@H](CC(=O)O)NC(=O)CNC(=O)[C@H](CCCNC(=N)N)NC(=O)CNC1=O [cyclo(--Arg--Gly--Asp--D--Phe--Val--Gly), cyclo(-Arg-Gly-Asp-D-Phe-Val-Gly)] (cyclo(RGD[dF]VG)) 0.62

* * *

Listing: IC50 of selected compounds
- target-or-system: αvβ3 (Homo sapiens, UniProt P05106+P06756)
- test-summary: Solid-phase receptor binding ELISA: competition with biotinylated fibrinogen on coated integrin receptor
- recorded-conditions: ligand biotinylated fibrinogen 1 μg/ml; receptor coated at 1 μg/ml; 3 h at 30° C.; triplicates
Where a SMILES comes first, the peptide text is derived from it. [ ]: non-standard residue; d: D form.

Look over these answered cases.
compound | IC50
C[C@@H]1NC(=O)[C@@H]2CCCN2C(=O)[C@H](Cc2ccccc2)NC(=O)[C@H](CC(=O)O)NC(=O)CNC(=O)[C@H](CCCNC(=N)N)NC1=O [cyclo(--Arg--Gly--Asp--Phe--Pro--Ala), cyclo(-Arg-Gly-Asp-Phe-Pro-Ala)] (cyclo(RGDFPA)) | 0.48 µM
CC(C)[C@@H]1NC(=O)[C@H](Cc2ccccc2)NC(=O)[C@H](CC(=O)O)NC(=O)CNC(=O)[C@@H](CCCNC(=N)N)NC(=O)[C@H](C)NC1=O [cyclo(--D--Arg--Gly--Asp--Phe--Val--Ala), cyclo(-D-Arg-Gly-Asp-Phe-Val-Ala)] (cyclo([dR]GDFVA)) | 4.5 µM
CC(C)[C@@H]1NC(=O)[C@H](Cc2ccccc2)NC(=O)[C@H](CC(=O)O)NC(=O)CNC(=O)[C@@H](CCCNC(=N)N)NC(=O)CNC1=O [cyclo(--D--Arg--Gly--Asp--Phe--Val--Gly), cyclo(-D-Arg-Gly-Asp-Phe-Val-Gly)] (cyclo(G[dR]GDFV)) | 1.52 µM

Indicate its recorded IC50; the compound in question is CC(C)[C@@H]1NC(=O)[C@@H](Cc2ccccc2)NC(=O)[C@H](CC(=O)O)NC(=O)CNC(=O)[C@H](CCCNC(=N)N)NC(=O)[C@H](C)NC1=O [cyclo(--Arg--Gly--Asp--D--Phe--Val--Ala), cyclo(-Arg-Gly-Asp-D-Phe-Val-Ala)] (cyclo(RGD[dF]VA)) 0.9 µM

Dear colleague, please send me the reported IC50 for CC(C)C[C@@H]1NC(=O)[C@@H](Cc2ccccc2)NC(=O)[C@H](CC(=O)O)NC(=O)CNC(=O)[C@H](CCCNC(=N)N)NC(=O)[C@H](C)NC1=O [cyclo(--Arg--Gly--Asp--D--Phe--Leu--Ala), cyclo(-Arg-Gly-Asp-D-Phe-Leu-Ala)] (cyclo(ARGD[dF]L)) when you can. 1.1 µM

Complete the entry with IC50 for CC(C)[C@@H]1NC(=O)[C@H](Cc2ccccc2)NC(=O)[C@H](CC(=O)O)NC(=O)[C@@H](C)NC(=O)[C@H](CCCNC(=N)N)NC1=O [cyclo(--Arg--D--Ala--Asp--Phe--Val), cyclo(-Arg-D-Ala-Asp-Phe-Val)] (cyclo(R[dA]DFV)) 52 µM

// Input: CC(C)[C@@H]1NC(=O)[C@@H](Cc2ccccc2)NC(=O)[C@H](CC(=O)O)NC(=O)[C@H](C)NC(=O)[C@H](CCCN=C(N)N)NC1=O [cyclo(--Arg--Ala--Asp--D--Phe--Val), cyclo(-Arg-Ala-Asp-D-Phe-Val)] (cyclo(AD[dF]VR)) . Output its IC50 only. 0.77 µM

Output IC50 of CC(C)C[C@@H]1NC(=O)[C@H](Cc2ccccc2)NC(=O)[C@H](CC(=O)O)NC(=O)CNC(=O)[C@H](CCCNC(=N)N)NC(=O)[C@@H](C)NC1=O [cyclo(--Arg--Gly--Asp--Phe--Leu--D--Ala), cyclo(-Arg-Gly-Asp-Phe-Leu-D-Ala)] (cyclo(RGDFL[dA])) 0.31 µM
